Source: ChEMBL document CHEMBL3232849

- measurementTarget: UniProt:Q9JHG3
- Sequence (whole entry): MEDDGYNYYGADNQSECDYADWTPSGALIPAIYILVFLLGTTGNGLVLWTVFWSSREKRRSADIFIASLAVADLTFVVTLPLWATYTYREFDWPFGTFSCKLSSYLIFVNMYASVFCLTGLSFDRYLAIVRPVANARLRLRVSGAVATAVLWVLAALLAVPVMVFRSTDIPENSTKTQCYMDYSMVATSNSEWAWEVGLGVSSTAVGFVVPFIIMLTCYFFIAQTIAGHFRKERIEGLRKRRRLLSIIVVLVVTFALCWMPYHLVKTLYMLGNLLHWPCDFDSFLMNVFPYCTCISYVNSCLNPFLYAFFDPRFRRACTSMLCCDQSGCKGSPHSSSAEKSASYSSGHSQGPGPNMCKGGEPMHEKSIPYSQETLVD
- experimentalProtocol: Agonist activity at rat apelin receptor expressed in CHO cell membranes coexpressing EGFP assessed as receptor internalization at 100 uM after 20 mins by confocal microscopic analysis
- Format: cell-based
Active and inactive are the calls of the source. No cut-off for these calls is given here.
Outcome codes: active, inactive

[[record]]
structurenotation = "CCN(CC)c1ccc2c(-c3ccc(S(=O)(=O)NCCCCCCNC(=O)NCCCC[C@H](NC(=O)Cc4csc(=N)n4C)C(=O)N[C@@H](Cc4cn(Cc5ccccc5)c[n+]4C)C(=O)NC4CCN(C)CC4)cc3S(=O)(=O)[O-])c3ccc(=[N+](CC)CC)cc-3oc2c1"
answerlabel = "active"

[[record]]
structurenotation = "CCN(CC)c1ccc2c(-c3ccc(S(=O)(=O)NCCCC[C@H](NC(=O)Cc4csc(=N)n4C)C(=O)N[C@@H](Cc4cn(Cc5ccccc5)c[n+]4C)C(=O)NC4CCN(C)CC4)cc3S(=O)(=O)[O-])c3ccc(=[N+](CC)CC)cc-3oc2c1.O=C(O)C(F)(F)F.O=C(O)C(F)(F)F.O=C([O-])C(F)(F)F"
answerlabel = "active"

[[record]]
structurenotation = "CCN(CC)c1ccc2c(-c3ccc(S(=O)(=O)NCCCC[C@H](NC(=O)Cc4csc(=N)[nH]4)C(=O)N[C@@H](Cc4cn(Cc5ccccc5)c[n+]4C)C(=O)NC4CCN(C)CC4)cc3S(=O)(=O)[O-])c3ccc(=[N+](CC)CC)cc-3oc2c1"
answerlabel = "inactive"

[[record]]
structurenotation = "CCN(CC)c1ccc2c(-c3ccc(S(=O)(=O)NCCCC[C@H](NC(=O)Cc4csc(=N)n4C)C(=O)N[C@@H](Cc4cn(Cc5ccccc5)c[n+]4C)C(=O)NCC4CCN(C)CC4)cc3S(=O)(=O)[O-])c3ccc(=[N+](CC)CC)cc-3oc2c1"
answerlabel = "active"

[[record]]
structurenotation = "CCN(CC)c1ccc2c(-c3ccc(S(=O)(=O)NCCCC[C@H](NC(=O)Cc4csc(=N)n4C)C(=O)N[C@@H](C)C(=O)NC4CCN(C)CC4)cc3S(=O)(=O)[O-])c3ccc(=[N+](CC)CC)cc-3oc2c1"
answerlabel = "inactive"

[[record]]
structurenotation = "CCN(CC)c1ccc2c(-c3ccc(S(=O)(=O)NCCCCCCCCCCCCNC(=O)NCCCC[C@H](NC(=O)Cc4csc(=N)n4C)C(=O)N[C@@H](Cc4cn(Cc5ccccc5)c[n+]4C)C(=O)NC4CCN(C)CC4)cc3S(=O)(=O)[O-])c3ccc(=[N+](CC)CC)cc-3oc2c1"
answerlabel = "active"

[[record]]
structurenotation = "CCN(CC)c1ccc2c(-c3ccc(S(=O)(=O)NCCCC[C@H](NC(=O)Cc4csc(=N)n4C)C(=O)N[C@@H](Cc4cn(Cc5ccccc5)c[n+]4C)C(=O)NC4CCOCC4)cc3S(=O)(=O)[O-])c3ccc(=[N+](CC)CC)cc-3oc2c1"
answerlabel = "inactive"

[[record]]
structurenotation = "CCN(CC)c1ccc2c(-c3ccc(S(=O)(=O)NCCCC[C@H](NC(=O)Cc4csc(=N)n4C)C(=O)N[C@@H](Cc4cn(Cc5ccccc5)c[n+]4C)C(=O)NC4CCN(Cc5ccccc5)CC4)cc3S(=O)(=O)[O-])c3ccc(=[N+](CC)CC)cc-3oc2c1"
answerlabel = "active"

[[record]]
structurenotation = "CCN(CC)c1ccc(C(=C2C=CC(=[N+](CC)CC)C=C2)c2ccc(S(=O)(=O)NCCCC[C@H](NC(=O)Cc3csc(=N)n3C)C(=O)N[C@@H](Cc3cn(Cc4ccccc4)c[n+]3C)C(=O)NC3CCN(C)CC3)cc2S(=O)(=O)[O-])cc1.O=C(O)C(F)(F)F.O=C(O)C(F)(F)F.O=C([O-])C(F)(F)F"
answerlabel = "inactive"

[[record]]
structurenotation = "CCN(CC)c1ccc2c(-c3ccc(S(=O)(=O)NCCCC[C@H](NC(=O)Cc4csc(=N)n4C)C(=O)N[C@@H](Cc4cn(Cc5ccccc5)cn4)C(=O)NC4CCN(C)CC4)cc3S(=O)(=O)[O-])c3ccc(=[N+](CC)CC)cc-3oc2c1"
answerlabel = "active"


====

- experimentalProtocol: Half life in mouse plasma at 5 uM at 37 degC by LC-MS analysis
- Type: ADME, cell-free
recordedMetric: half-life at 5 µM

[[record]]
structurenotation = "CCN(CC)c1ccc2c(-c3ccc(S(=O)(=O)NCCCC[C@H](NC(=O)Cc4csc(=N)n4C)C(=O)N[C@@H](Cc4cn(Cc5ccccc5)c[n+]4C)C(=O)NC4CCN(C)CC4)cc3S(=O)(=O)[O-])c3ccc(=[N+](CC)CC)cc-3oc2c1.O=C(O)C(F)(F)F.O=C(O)C(F)(F)F.O=C([O-])C(F)(F)F"
observed = "> 10 h"

[[record]]
structurenotation = "CCN(CC)c1ccc(C(=C2C=CC(=[N+](CC)CC)C=C2)c2ccc(S(=O)(=O)NCCCC[C@H](NC(=O)Cc3csc(=N)n3C)C(=O)N[C@@H](Cc3cn(Cc4ccccc4)c[n+]3C)C(=O)NC3CCN(C)CC3)cc2S(=O)(=O)[O-])cc1.O=C(O)C(F)(F)F.O=C(O)C(F)(F)F.O=C([O-])C(F)(F)F"
observed = "> 10 h"

[[record]]
structurenotation = "CSCC[C@H](NC(=O)[C@@H]1CCCN1C(=O)CNC(=O)[C@H](CCCCN)NC(=O)[C@H](Cc1cnc[nH]1)NC(=O)[C@H](CO)NC(=O)[C@H](CC(C)C)NC(=O)[C@H](CCCNC(=N)N)NC(=O)[C@@H]1CCCN1C(=O)[C@H](CCCNC(=N)N)NC(=O)[C@H](CCC(N)=O)NC(=O)[C@H](CCCNC(=N)N)NC(=O)[C@H](CCCNC(=N)N)NC(=O)[C@H](Cc1ccccc1)NC(=O)[C@@H](N)CCCCN)C(=O)N1CCC[C@H]1C(=O)N[C@@H](Cc1ccccc1)C(=O)O"
observed = "0.0767 h"

[[record]]
structurenotation = "CCN(CC)c1ccc2c(-c3ccc(S(=O)(=O)NCCCCCCCCCCCCNC(=O)NCCCC[C@H](NC(=O)Cc4csc(=N)n4C)C(=O)N[C@@H](Cc4cn(Cc5ccccc5)c[n+]4C)C(=O)NC4CCN(C)CC4)cc3S(=O)(=O)O)c3ccc(=[N+](CC)CC)cc-3oc2c1"
observed = "> 10 h"


====

- measurementTarget: UniProt:P35414
- Sequence (P35414 whole entry): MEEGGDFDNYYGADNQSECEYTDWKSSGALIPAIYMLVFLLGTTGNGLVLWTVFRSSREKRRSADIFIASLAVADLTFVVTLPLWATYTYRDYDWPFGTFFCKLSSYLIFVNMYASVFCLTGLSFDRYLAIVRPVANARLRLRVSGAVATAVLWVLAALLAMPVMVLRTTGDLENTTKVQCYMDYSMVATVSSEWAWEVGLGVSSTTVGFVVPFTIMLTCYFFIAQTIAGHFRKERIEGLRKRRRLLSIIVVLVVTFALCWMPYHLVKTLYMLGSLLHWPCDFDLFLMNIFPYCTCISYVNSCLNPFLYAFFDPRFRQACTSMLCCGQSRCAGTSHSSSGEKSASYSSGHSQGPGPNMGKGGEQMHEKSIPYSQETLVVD
pKi: −log10 of the molar value.
recordedMetric: pKi

[[record]]
structurenotation = "CCN(CC)c1ccc2c(-c3ccc(S(=O)(=O)NCCCCCCCCCCCCNC(=O)NCCCC[C@H](NC(=O)Cc4csc(=N)n4C)C(=O)N[C@@H](Cc4cn(Cc5ccccc5)cn4)C(=O)NC4CCN(C)CC4)cc3S(=O)(=O)[O-])c3ccc(=[N+](CC)CC)cc-3oc2c1"
measurementtarget = "UniProt:P35414"
recordedmetric = "pKi"
cmp = "="
observed = 5.82

[[record]]
structurenotation = "CCN(CC)c1ccc2c(-c3ccc(S(=O)(=O)NCCCC[C@H](NC(=O)Cc4csc(=N)n4C)C(=O)N[C@@H](Cc4cn(Cc5ccccc5)c[n+]4C)C(=O)NC4CCN(Cc5ccccc5)CC4)cc3S(=O)(=O)[O-])c3ccc(=[N+](CC)CC)cc-3oc2c1"
measurementtarget = "UniProt:P35414"
recordedmetric = "pKi"
cmp = "="
observed = 6.57

[[record]]
structurenotation = "CCN(CC)c1ccc2c(-c3ccc(S(=O)(=O)NCCCC[C@H](NC(=O)Cc4csc(=N)[nH]4)C(=O)N[C@@H](Cc4cn(Cc5ccccc5)c[n+]4C)C(=O)NC4CCN(C)CC4)cc3S(=O)(=O)[O-])c3ccc(=[N+](CC)CC)cc-3oc2c1"
measurementtarget = "UniProt:P35414"
recordedmetric = "pKi"
cmp = "="
observed = 6.07

[[record]]
structurenotation = "CCN(CC)c1ccc2c(-c3ccc(S(=O)(=O)NCCCCNCCCC[C@H](NC(=O)Cc4csc(=N)n4C)C(=O)N[C@@H](Cc4cn(Cc5ccccc5)c[n+]4C)C(=O)NC4CCN(C)CC4)cc3S(=O)(=O)O)c3ccc(=[N+](CC)CC)cc-3oc2c1"
measurementtarget = "UniProt:P35414"
recordedmetric = "pKi"
cmp = "<"
observed = 4.00

